Test: Single-dose pharmacokinetics of erlotinib in non-tumor bearing mice
Format: in vivo, female nu/nu athymic mice
Settings: female, nu/nu athymic, mouse, plasma, po; single 20 and 100 mg/kg by gavage; read-out: Mean apparent terminal half-life (converted)
MEASUREMENT_KIND: half-life

Enquiry: Tell me the measured half-life of C#Cc1cccc(Nc2ncnc3cc(OCCOC)c(OCCOC)cc23)c1 , please.
Return: ~4 h

====

Test: Single-dose pharmacokinetics of erlotinib in non-tumor bearing mice
Format: in vivo, female nu/nu athymic mice
Conditions: female, nu/nu athymic, mouse, plasma, po; single 20 and 100 mg/kg by gavage; read-out: Average mean residence time
MEASUREMENT_KIND: MRT

Enquiry: Tell me the measured MRT of C#Cc1cccc(Nc2ncnc3cc(OCCOC)c(OCCOC)cc23)c1 , please.
Return: ~7 h
